Target: IN-GCN2 interaction (6xHis-IN / GST-GCN2) (UniProt P04585+Q9P2K8)
Sequence (Q9P2K8 192-1024, other chains not shown): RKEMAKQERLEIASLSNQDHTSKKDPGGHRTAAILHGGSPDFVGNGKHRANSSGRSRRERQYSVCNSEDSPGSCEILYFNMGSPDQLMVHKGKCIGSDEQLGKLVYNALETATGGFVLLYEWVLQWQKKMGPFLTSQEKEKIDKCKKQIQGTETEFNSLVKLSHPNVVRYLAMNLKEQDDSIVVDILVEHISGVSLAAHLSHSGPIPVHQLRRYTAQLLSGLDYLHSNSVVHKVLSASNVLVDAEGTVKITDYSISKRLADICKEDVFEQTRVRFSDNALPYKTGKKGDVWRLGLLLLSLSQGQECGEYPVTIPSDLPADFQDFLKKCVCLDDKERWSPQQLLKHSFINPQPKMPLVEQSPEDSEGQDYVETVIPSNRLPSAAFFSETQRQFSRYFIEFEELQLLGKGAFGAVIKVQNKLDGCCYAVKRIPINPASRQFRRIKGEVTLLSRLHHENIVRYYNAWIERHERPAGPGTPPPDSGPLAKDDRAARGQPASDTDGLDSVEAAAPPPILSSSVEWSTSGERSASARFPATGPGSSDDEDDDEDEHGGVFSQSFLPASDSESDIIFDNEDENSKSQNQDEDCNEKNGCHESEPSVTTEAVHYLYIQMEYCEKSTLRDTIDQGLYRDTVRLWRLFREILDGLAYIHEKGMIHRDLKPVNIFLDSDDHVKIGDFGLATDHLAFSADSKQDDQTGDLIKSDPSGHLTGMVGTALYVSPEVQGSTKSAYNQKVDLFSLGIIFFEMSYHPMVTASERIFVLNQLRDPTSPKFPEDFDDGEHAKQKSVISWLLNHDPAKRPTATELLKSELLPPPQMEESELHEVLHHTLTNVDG
Assay: biochemical
Type: binding, HIV-1 IN; human GCN2
Details: IC50, inhibition of IN-GCN2 interaction, SAR study, fresh dilutions from powder; at least three independent experiments
Reported pIC50 values follow for various compounds
API: returns pIC50 as number; meaning -log10 of concentration in mol/L.

Look over these answered cases.
Q: Can you look up the measured pIC50 of COc1cc2c(cc1OC)-c1c3c(cc4c1C(C2)N(C)CC4)OCO3 (stereo not drawn) for me?
Result: 4.04

Q: Can you look up the measured pIC50 of O=C1c2c(O)ccc(O)c2C(=O)c2c(NCCOCCO)ccc(NCCOCCO)c21 for me?
Result: 5.18

Q: Can you look up the measured pIC50 of COc1cccc2c1C(=O)c1c(O)c3c(c(O)c1C2=O)CC(O)(C(=O)CO)CC3OC1CC(N2CCOCC2C#N)C(O)C(C)O1 (stereo not drawn) for me?
Result: 4.21

Q: Can you look up the measured pIC50 of O=C1c2c(O)ccc(O)c2C(=O)c2c(NCCCCCO)ccc(NCCCCCO)c21 for me?
Result: 4.91

Q: Can you look up the measured pIC50 of COc1cc2c(cc1OC)c1c(OC)c(OC)cc3c1c1c2sc(=S)n1CC3 for me?
Result: 4.62

Q: Can you look up the measured pIC50 of O=C1c2c(O)ccc(O)c2C(=O)c2c(NCCCCO)ccc(NCCCCO)c21 for me?
Result: 4.95

Continuing:
Q: Can you look up the measured pIC50 of O=C1c2ccccc2C(=O)c2c(NCCNCCO)ccc(O)c21 for me?
Result: 5.92

---

Molecular target: IN-GCN2 interaction (6xHis-IN / GST-GCN2) (UniProt P04585+Q9P2K8)
Experiment: biochemical
Assay type: binding, HIV-1 IN; human GCN2
Conditions: screen, single dose 100 µM, single replicate; residual AlphaLISA signal normalized to DMSO control
Reported IN-GCN2 interaction (%) values follow for various compounds
Remember to quote the unit after the number.

Look over these answered cases.
Q: Can you look up the measured IN-GCN2 interaction (%) of COc1cc2c(cc1O)[C@@H](Cc1ccc(Oc3cc(C[C@H]4c5cc(O)c(OC)cc5CCN4C)ccc3O)cc1)N(C)CC2 for me?
Result: 46.86%

Q: Can you look up the measured IN-GCN2 interaction (%) of CC[C@H](C)[C@@H]([C@@H](CC(=O)N1CCC[C@H]1[C@H](OC)[C@@H](C)C(=O)N[C@@H](Cc1ccccc1)c1nccs1)OC)N(C)C(=O)[C@@H](NC(=O)[C@H](C(C)C)N(C)C)C(C)C for me?
Result: 96.15%

Q: Can you look up the measured IN-GCN2 interaction (%) of C[C@@H]1CC[C@H]2[C@@H](C)C(=O)O[C@@H]3O[C@@]4(C)CC[C@@H]1[C@]32OO4 for me?
Result: 101.56%

Q: Can you look up the measured IN-GCN2 interaction (%) of O=C1NC(O)CCN1[C@@H]1O[C@H](CO)[C@@H](O)[C@H]1O (stereo partly shown) for me?
Result: 123.97%

Continuing:
Q: Can you look up the measured IN-GCN2 interaction (%) of COc1c2c(cc3c1C1Oc4c(ccc(O)c4CC=C(C)C)C1CO3)OC(C)(C)C=C2 (stereo not shown) for me?
Result: 16.46%

Q: Can you look up the measured IN-GCN2 interaction (%) of COc1c2c(c3c(c1CCC(=O)O)OC(C)(C)C=C3)OC(C)(C)C=C2 for me?
Result: 100.62%

Q: Can you look up the measured IN-GCN2 interaction (%) of CC1(C)C(CC(=O)O)CC1C(=O)O (stereo not shown) for me?
Result: 86.94%

---

Target: IN-GCN2 interaction (6xHis-IN / GST-GCN2) (UniProt P04585+Q9P2K8)
Experiment: biochemical
Assay type: binding, HIV-1 IN; human GCN2
Conditions: screen, single dose 100 µM, single replicate; residual AlphaLISA signal normalized to DMSO control
Square brackets hold non-standard residues; d marks the D form. Peptide text beside a SMILES is read from it. dNMeL = CN[C@H](CC(C)C)C(=O)O; Hiv = CC(C)[C@H](O)C(=O)O
REPORTED_METRIC: IN-GCN2 interaction (%)
Remember to quote the unit after the number.

Look over these answered cases.
Q: Can you look up the measured IN-GCN2 interaction (%) of COc1cc2c(cc1OC)C(O)C(O)(CO)C(C(=O)O)C2c1cc(OC)c(OC)c(OC)c1 (stereo not shown) [NSC50131] for me?
Result: 78.06%

Q: Can you look up the measured IN-GCN2 interaction (%) of CC(C)C[C@@H]1NC(=O)[C@H](C(C)C)NC(=O)[C@H](C(C)C)OC(=O)[C@@H](CC(C)C)N(C)C(=O)[C@@H](C(C)C)NC(=O)[C@H](C(C)C)OC1=O [NSC122224] (cyclo([Hiv]VL[Hiv][dV][dNMeL])) for me?
Result: 110.56%

Q: Can you look up the measured IN-GCN2 interaction (%) of CN1CC(=O)NC1=N [NSC13123] for me?
Result: 106.95%

Q: Can you look up the measured IN-GCN2 interaction (%) of COc1cc2c3c(cc4ccccc4c3c1O)N(C)CC2 [NSC785168] for me?
Result: 4.53%

Q: Can you look up the measured IN-GCN2 interaction (%) of O=C1C[C@@H]2OCC=C3C[N+]4([O-])CC[C@]56c7ccccc7N1[C@H]5[C@H]2[C@H]3C[C@@H]64 (stereo partly shown) [NSC24951] for me?
Result: 106.44%

Continuing:
Q: Can you look up the measured IN-GCN2 interaction (%) of O[C@@H]1[C@@H](O)[C@@H](O)CN2CC[C@H](O)[C@@H]12 [NSC614552] for me?
Result: 134.45%

Q: Can you look up the measured IN-GCN2 interaction (%) of C=C[C@H]1CN2CC[C@H]1C[C@H]2C(=O)c1ccnc2ccc(OC)cc12 [NSC15307] for me?
Result: 84.16%

Q: Can you look up the measured IN-GCN2 interaction (%) of CC[C@](C)(O)C(=O)O[C@H]1C(=O)O[C@@H]2C[C@H]3C(C)=CC(=O)[C@@H](O)[C@]3(C)[C@H]3[C@@]4(O)OC[C@]32[C@@H]1[C@@H](C)[C@H]4O [NSC132791] for me?
Result: 89.72%

Q: Can you look up the measured IN-GCN2 interaction (%) of COC(=O)[C@]1(C)CCC[C@]2(C)C3=CC(=O)[C@@]4(C(C)C)O[C@H]4[C@]3(O)CC[C@@H]12 [NSC337783] for me?
Result: 100.26%

---

Target: IN-GCN2 interaction (6xHis-IN / GST-GCN2) (UniProt P04585+Q9P2K8)
Assay: biochemical
Format: binding, HIV-1 IN; human GCN2
Conditions: screen, single dose 100 µM, single replicate; residual AlphaLISA signal normalized to DMSO control
Reported IN-GCN2 interaction (%) values follow for various molecules
Write the number in % without appending the unit.

Look over these answered cases.
Q: Can you look up the measured IN-GCN2 interaction (%) of COc1c(OC)c2c3c(nccc3c1OC)C(=O)c1ccccc1-2 for me?
Result: 57.46

Q: Can you look up the measured IN-GCN2 interaction (%) of COc1ccc2c(c1O)-c1cccc3c1[C@@H](C2)N(C)CC3 for me?
Result: 66.28

Q: Can you look up the measured IN-GCN2 interaction (%) of C/C(=C\COc1ccc2ccc(=O)oc2c1)C1=CC(=O)C(C)(C)O1 for me?
Result: 94.46

Q: Can you look up the measured IN-GCN2 interaction (%) of COc1cc2c3c(c1O)C1(C=CC(=O)C=C1)C[C@@H]3N(C)CC2 for me?
Result: 94.62

Q: Can you look up the measured IN-GCN2 interaction (%) of CCC/C=C/C=C/C(=O)O[C@H]1/C(=C/C(=O)OC)C[C@H]2C[C@H]([C@@H](C)O)OC(=O)C[C@H](O)C[C@@H]3C[C@H](OC(C)=O)C(C)(C)[C@](O)(C[C@@H]4C/C(=C/C(=O)OC)C[C@H](/C=C/C(C)(C)[C@]1(O)O2)O4)O3 for me?
Result: 32.23

Q: Can you look up the measured IN-GCN2 interaction (%) of C=C1C(=O)OC2CC1C(O)C/C(C)=C/CC/C(C)=C/C(O)CC2C (stereo not shown) for me?
Result: 107.44

# context switch: different molecule, same IN-GCN2 interaction (%)
Q: Can you look up the measured IN-GCN2 interaction (%) of COc1ccc([C@@H]2CC(=O)c3c(O)cc(O[C@@H]4O[C@H](CO[C@@H]5O[C@@H](C)[C@H](O)[C@@H](O)[C@H]5O)[C@@H](O)[C@H](O)[C@H]4O)cc3O2)cc1O for me?
Result: 142.54
